The values you see were collected from patent US8497245B2.

target_system: Human Activated Protein C (h aPC) (Homo sapiens)
Sequence (P04070 212-450 limits assumed): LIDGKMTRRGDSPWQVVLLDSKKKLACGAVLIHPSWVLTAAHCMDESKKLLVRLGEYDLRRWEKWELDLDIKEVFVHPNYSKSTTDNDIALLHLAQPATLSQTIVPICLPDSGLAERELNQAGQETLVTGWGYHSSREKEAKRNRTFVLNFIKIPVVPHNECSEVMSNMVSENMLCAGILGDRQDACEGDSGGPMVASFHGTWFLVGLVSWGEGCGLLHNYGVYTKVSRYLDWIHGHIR
Sequence (P04070 43-197 partner limits assumed): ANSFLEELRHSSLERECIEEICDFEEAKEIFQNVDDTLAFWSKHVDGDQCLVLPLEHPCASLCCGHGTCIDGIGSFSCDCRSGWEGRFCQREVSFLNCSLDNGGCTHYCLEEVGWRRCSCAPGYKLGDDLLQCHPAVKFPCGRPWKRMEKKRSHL
test_summary: Inhibition of human activated protein C (reference enzyme)
setup_conditions: Pefachrome PCa substrate
pKi: −log10 of the molar value.
Recorded measurements of pKi, one per entry

Look over these answered cases.
{"compound": "NCc1ccc(Cl)cc1CNC(=O)[C@@H]1C[C@@H](N)CN1C(=O)[C@@H](CC(=O)N1CCCCC1)NS(=O)(=O)Cc1ccccc1", "pKi": "< 4.30"}
{"compound": "NCc1ccc(Cl)cc1CNC(=O)[C@@H]1CCCN1C(=O)[C@@H](CC(=O)Nc1cc[n+]([O-])cc1)NS(=O)(=O)Cc1ccccc1", "pKi": "< 5.00"}

Could you now consider this next compound?
## Task Param item = "NCc1ccc(Cl)cc1CNC(=O)[C@@H]1CCN1C(=O)[C@@H](CC(=O)N1CCOCC1)NS(=O)(=O)Cc1ccccc1" ; retrieve measured pKi.
## Result < 4.00

---

Recorded measurements of Ki, one per entry
target_system: Human tissue-type plasminogen activator (h t-PA) (Homo sapiens)
Construct: purchased Boehringer Ingelheim Actilyse
Sequence (P00750 36-562): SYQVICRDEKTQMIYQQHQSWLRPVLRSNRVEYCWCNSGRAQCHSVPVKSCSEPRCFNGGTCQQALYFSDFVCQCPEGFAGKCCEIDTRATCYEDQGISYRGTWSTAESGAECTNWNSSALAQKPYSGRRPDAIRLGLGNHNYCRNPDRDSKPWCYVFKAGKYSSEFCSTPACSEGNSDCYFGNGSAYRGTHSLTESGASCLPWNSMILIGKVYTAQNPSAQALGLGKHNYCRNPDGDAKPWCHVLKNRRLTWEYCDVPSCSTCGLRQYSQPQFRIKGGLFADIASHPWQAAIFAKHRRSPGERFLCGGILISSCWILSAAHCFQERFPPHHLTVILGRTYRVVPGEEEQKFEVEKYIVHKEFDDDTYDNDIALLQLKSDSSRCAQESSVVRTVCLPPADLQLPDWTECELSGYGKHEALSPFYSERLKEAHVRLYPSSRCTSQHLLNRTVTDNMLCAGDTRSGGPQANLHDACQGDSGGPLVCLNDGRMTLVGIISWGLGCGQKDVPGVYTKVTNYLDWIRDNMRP
test_summary: Inhibition of human tissue-type plasminogen activator (reference enzyme)
Format: biochemical
setup_conditions: Pefachrome tPA substrate; read-out: Ki h t-PA
Counter-ions that a name gives are not always drawn.

Look over these answered cases.
{"compound": "NCc1ccc(Cl)cc1CNC(=O)[C@@H]1CCCN1C(=O)[C@@H](CC(=O)Nc1cc[n+]([O-])cc1)NS(=O)(=O)Cc1ccccc1 [Compound 2.48]", "Ki": "26.8 µM"}
{"compound": "CN(CC1CCOCC1)C(=O)C[C@@H](NS(=O)(=O)Cc1ccccc1)C(=O)N1CCC[C@H]1C(=O)NCc1cc(Cl)ccc1CN [Compound 2.47, TFA]", "Ki": "> 50 µM"}
{"compound": "CN(C(=O)C[C@@H](NS(=O)(=O)Cc1ccccc1)C(=O)N1CCC[C@H]1C(=O)NCc1cc(Cl)ccc1CN)C1CCOCC1 [Compound 2.4]", "Ki": "> 100 µM"}

## Task Param item = NCc1ccc(Cl)cc1CNC(=O)[C@@H]1CCN1C(=O)[C@@H](CC(=O)N1CCOCC1)NS(=O)(=O)Cc1ccccc1 [Compound 2.44] ; retrieve measured Ki.
## Result > 35 µM

## Task Param item = NCc1ccc(Cl)cc1CNC(=O)[C@@H]1CCN1C(=O)[C@@H](CC(=O)N1CCNCC1)NS(=O)(=O)Cc1ccccc1 [Compound 2.50, TFA] ; retrieve measured Ki.
## Result > 20 µM

---

target_system: Subcomponent "r" of Human Complement Component 1 (h C1r) (Homo sapiens)
Sequence (P00736 464-705 limits assumed): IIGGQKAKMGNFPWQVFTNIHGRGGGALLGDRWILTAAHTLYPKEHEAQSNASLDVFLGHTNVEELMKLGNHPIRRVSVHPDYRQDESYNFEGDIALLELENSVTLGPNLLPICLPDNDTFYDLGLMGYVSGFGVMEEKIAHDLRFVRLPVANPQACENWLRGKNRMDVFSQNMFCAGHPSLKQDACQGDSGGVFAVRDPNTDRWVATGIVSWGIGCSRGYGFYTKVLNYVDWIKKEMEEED
Sequence (P00736 18-463 partner limits assumed): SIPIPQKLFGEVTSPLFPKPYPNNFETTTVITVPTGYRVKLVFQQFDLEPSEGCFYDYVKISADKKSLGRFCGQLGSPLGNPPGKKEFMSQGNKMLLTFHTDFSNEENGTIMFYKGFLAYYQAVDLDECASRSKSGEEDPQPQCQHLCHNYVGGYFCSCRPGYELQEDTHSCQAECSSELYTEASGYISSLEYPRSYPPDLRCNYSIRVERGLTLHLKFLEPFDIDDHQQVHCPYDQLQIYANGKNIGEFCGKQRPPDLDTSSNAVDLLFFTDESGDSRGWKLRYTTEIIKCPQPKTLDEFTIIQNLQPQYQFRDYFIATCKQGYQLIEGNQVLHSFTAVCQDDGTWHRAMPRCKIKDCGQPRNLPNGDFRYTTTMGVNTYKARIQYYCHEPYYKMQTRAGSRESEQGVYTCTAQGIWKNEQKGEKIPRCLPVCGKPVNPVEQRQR
quantity_kind: Ki

Look over these answered cases.
{"compound": "NCc1ccc(Cl)cc1CNC(=O)[C@@H]1CCCN1C(=O)[C@@H](CCC(=O)N1CCOCC1)NC(=O)Cc1ccccc1", "Ki": "> 20 µM"}
{"compound": "NCc1ccc(Cl)cc1CNC(=O)CC[C@@H](NS(=O)(=O)Cc1ccccc1)C(=O)N1CCC[C@H]1C(=O)NCc1cc(Cl)ccc1CN", "Ki": "> 30 µM"}

Could you now consider this next compound?
## Task Param item = "NCc1ccc(Cl)cc1CNC(=O)[C@@H]1CCCN1C(=O)[C@@H](CC(=O)N1CCOCC1)NS(=O)(=O)Cc1ccccc1" ; retrieve measured Ki.
## Result > 30 µM
